TEST DESCRIPTION: self-splicing fitness, log relative to wild type (ln ratio); higher = more splicing; Tetrahymena group I intron in knt gene, E. coli kanamycin selection, DiMSum; sequences stand for … in CUCUCU…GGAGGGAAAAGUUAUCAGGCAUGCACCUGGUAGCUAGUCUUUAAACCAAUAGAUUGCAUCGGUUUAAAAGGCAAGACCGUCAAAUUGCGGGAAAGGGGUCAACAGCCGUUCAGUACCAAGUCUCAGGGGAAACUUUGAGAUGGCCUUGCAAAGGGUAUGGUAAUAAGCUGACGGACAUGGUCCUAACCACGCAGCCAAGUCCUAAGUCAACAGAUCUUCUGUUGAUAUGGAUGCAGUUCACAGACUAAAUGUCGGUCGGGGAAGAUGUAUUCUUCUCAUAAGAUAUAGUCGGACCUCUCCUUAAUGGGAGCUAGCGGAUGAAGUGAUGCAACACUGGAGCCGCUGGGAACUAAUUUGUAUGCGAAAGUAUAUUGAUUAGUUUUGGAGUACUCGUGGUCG;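 note: selection with 25 µg/mL kanamycin versus none on LB agar overnight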
CONDITION: 37 °C
PARAMETER: self-splicing fitness (ln)

RESIDUES	DATA VALUE
GUAAAGCAAUAUUACGCCCC	-0.0225
AGGUAGCAAUAUUACGACAA	-0.295
CGACAGCAAUAUUACGGCUU	-1.6
GCCAAGCAAUAUUACGCUGG	-2.37
CCAUAGCAAUAUUACGACGU	-2.13
CUUAAGCAAUAUUACGCGGU	-2.35
ACUAAGCAAUAUUACGGAUG	-1.42
UAGUAGCAAUAUUACGGGAC	-2.27
GUACAGCAAUAUUACGGGCG	-1.11
AGCGAGCAAUAUUACGUGCC	-0.439
UAUUAGCAAUAUUACGUUUC	-2.98
ACUGAGCAAUAUUACGUGUG	-2.13
GAACAGCAAUAUUACGCUUG	-0.731
CGGAAGCAAUAUUACGGGCG	-0.481
ACGAAGCAAUAUUACGCUUC	-2.59
GAAAAGCAAUAUUACGCUUG	-0.918
GUAUAGCAAUAUUACGGGGA	-2.83
UACCAGCAAUAUUACGUCGC	-1.88
UCGAAGCAAUAUUACGUGAU	-1.37
CUUUAGCAAUAUUACGACUU	-3.6
UUUCAGCAAUAUUACGAGGG	-1.02
GCGGAGCAAUAUUACGAUAC	-2.35
AUUUAGCAAUAUUACGUCUU	0.156
UCUCAGCAAUAUUACGCUCG	-2
GAUGAGCAAUAUUACGCGAC	-0.921
CCGUAGCAAUAUUACGCCCA	-2.54
UACUAGCAAUAUUACGGACA	-0.47
CUAAAGCAAUAUUACGCACU	-2.34
AGAAAGCAAUAUUACGGGCG	-0.328
AUACAGCAAUAUUACGCACC	-1.05
UUAUAGCAAUAUUACGGAAA	-1.67
ACGAAGCAAUAUUACGGAAA	-3.02
UUAUAGCAAUAUUACGAAUU	-0.681
UGCAAGCAAUAUUACGACGC	-0.865

---

This listing pairs sequences with measured self-splicing fitness (ln).
TEST DESCRIPTION: self-splicing fitness, log relative to wild type (ln ratio); higher = more splicing; Tetrahymena group I intron in knt gene, E. coli kanamycin selection, DiMSum; sequences stand for … in CUCUCU…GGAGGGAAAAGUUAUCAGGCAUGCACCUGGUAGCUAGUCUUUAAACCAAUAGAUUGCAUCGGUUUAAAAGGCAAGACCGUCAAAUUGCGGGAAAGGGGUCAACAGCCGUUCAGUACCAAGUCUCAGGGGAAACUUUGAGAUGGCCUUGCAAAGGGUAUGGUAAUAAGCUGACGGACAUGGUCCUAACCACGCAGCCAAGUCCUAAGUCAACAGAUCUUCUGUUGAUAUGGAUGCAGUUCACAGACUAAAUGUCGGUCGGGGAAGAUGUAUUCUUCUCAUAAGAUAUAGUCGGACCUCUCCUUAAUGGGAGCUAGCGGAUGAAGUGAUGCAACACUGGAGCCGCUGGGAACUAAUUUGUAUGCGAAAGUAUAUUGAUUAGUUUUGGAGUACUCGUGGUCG
CONDITION: 30 °C

RESIDUES	self-splicing fitness (ln)
GCCCAGCAAUAUUACGACAA	-2.72
CUAAAGCAAUAUUACGAGAA	-2.99
GCUGAGCAAUAUUACGUACG	-2.59
AUCGAGCAAUAUUACGCGAC	-1.15
UACCAGCAAUAUUACGCUAC	-3.17
GUUAAGCAAUAUUACGCCCA	0.115
CGCUAGCAAUAUUACGCCGG	-3.06
UCUCAGCAAUAUUACGGACA	-0.71
UAGCAGCAAUAUUACGUGCU	-1.12
CGAAAGCAAUAUUACGCGAA	-1.82
AGACAGCAAUAUUACGUGAG	-1.67
GAAUAGCAAUAUUACGCGCC	-1.29
AAACAGCAAUAUUACGGGGC	-3.85
UGAAAGCAAUAUUACGUGCA	0.0492
AAGGAGCAAUAUUACGCAUG	-3.28
UAACAGCAAUAUUACGUUGU	-4.18
GCCGAGCAAUAUUACGAAGA	-2.76
GUGGAGCAAUAUUACGGACC	-1.56
CGAUAGCAAUAUUACGCGGC	-2.93
ACGGAGCAAUAUUACGUUCG	-1.33
GUAAAGCAAUAUUACGCUGC	-2.97
AUUAAGCAAUAUUACGGGAA	-2.09
GGCCAGCAAUAUUACGUUGU	-0.721
UAAAAGCAAUAUUACGCCUA	0.161
AAUCAGCAAUAUUACGAAGG	-1.16
GCGUAGCAAUAUUACGUUAG	-3.92
UGUCAGCAAUAUUACGCUCU	-0.884
CGUCAGCAAUAUUACGAACC	-1.37
AUUGAGCAAUAUUACGCGGA	-4.15
AGGUAGCAAUAUUACGAGUU	-2.03
UUCGAGCAAUAUUACGCGAC	-3.69
GUACAGCAAUAUUACGAAAU	-2.34
GCCCAGCAAUAUUACGUUUU	-1.53
UUGUAGCAAUAUUACGAACU	-2.24
CAGAAGCAAUAUUACGCUUA	-3.85
GUGCAGCAAUAUUACGCAGG	-2.59
CUUAAGCAAUAUUACGGGUC	-4.47
ACUCAGCAAUAUUACGAUUC	-1.63
AAGAAGCAAUAUUACGUUUC	-3.62
CCCUAGCAAUAUUACGUCUA	-2.5
GCAGAGCAAUAUUACGAGUU	-4.28
GCAGAGCAAUAUUACGGCCG	-3.3
GCUCAGCAAUAUUACGUUGC	-1.99
UCCUAGCAAUAUUACGUGGC	-3.85
UAUUAGCAAUAUUACGCACA	-0.485
AAACAGCAAUAUUACGAUUC	-2.04
CCGCAGCAAUAUUACGGUUA	-3.25
CAAAAGCAAUAUUACGCCGA	-2.91
GGCAAGCAAUAUUACGUUGG	-2.5
AAGUAGCAAUAUUACGCAAG	-1.81
UGUCAGCAAUAUUACGGUGU	-2.06
CCGGAGCAAUAUUACGUCCA	-1.39
UCCCAGCAAUAUUACGUAAG	-3.88
CCUCAGCAAUAUUACGCCUU	-3.95
GCGUAGCAAUAUUACGAUAU	-0.111
CCGUAGCAAUAUUACGUUCA	-1.34
CGUGAGCAAUAUUACGCGUU	-3.11
ACGGAGCAAUAUUACGAAUG	-3.88
GCGAAGCAAUAUUACGCCUG	-2.26
UUCCAGCAAUAUUACGUUGU	-2.93
ACUUAGCAAUAUUACGUAAG	-0.131
GACUAGCAAUAUUACGCUUA	-0.282
AGUAAGCAAUAUUACGAAAA	-2.29
UAGGAGCAAUAUUACGGACA	-3.74
GGGAAGCAAUAUUACGCCGU	-0.357
GGUCAGCAAUAUUACGCGAA	-0.889
AAUGAGCAAUAUUACGGUAG	-4.54

---

TEST DESCRIPTION: self-splicing fitness, log relative to wild type (ln ratio); higher = more splicing; Tetrahymena group I intron in knt gene, E. coli kanamycin selection, DiMSum; sequences stand for … in CUCUCU…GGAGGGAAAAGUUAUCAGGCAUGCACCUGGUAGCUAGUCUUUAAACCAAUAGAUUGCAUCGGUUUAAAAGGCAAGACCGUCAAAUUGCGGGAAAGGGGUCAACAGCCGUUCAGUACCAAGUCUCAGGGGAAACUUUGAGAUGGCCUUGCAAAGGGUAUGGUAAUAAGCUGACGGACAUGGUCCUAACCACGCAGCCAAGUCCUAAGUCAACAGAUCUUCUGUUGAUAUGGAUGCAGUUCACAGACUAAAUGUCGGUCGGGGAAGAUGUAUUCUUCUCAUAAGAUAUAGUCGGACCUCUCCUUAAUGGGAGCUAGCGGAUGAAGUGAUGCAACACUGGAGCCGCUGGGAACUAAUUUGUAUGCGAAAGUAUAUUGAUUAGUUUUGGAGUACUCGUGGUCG
CONDITION: 37 °C
Collected self-splicing fitness (ln) values appear next to each entry.

RESIDUES	self-splicing fitness (ln)
UGCGAGCAAUAUUACGUCCG	-0.194
CAUAAGCAAUAUUACGUGCG	-0.792
CACUAGCAAUAUUACGUUUG	-1.42
UCCGAGCAAUAUUACGCUCG	-3.08
UCGGAGCAAUAUUACGCGCG	-0.752
CGCUAGCAAUAUUACGGUGC	-3.09
CUUCAGCAAUAUUACGCCGC	-2.43
CAGGAGCAAUAUUACGCUGU	-2.65
CGUUAGCAAUAUUACGAUUA	-1.14
CUCGAGCAAUAUUACGUUAU	-2.72
AGACAGCAAUAUUACGGAAC	-1.4
CGCGAGCAAUAUUACGAUUG	-0.15
AGCGAGCAAUAUUACGUGUC	-2.85
GGGGAGCAAUAUUACGCCAC	-3.39
AUUAAGCAAUAUUACGUUCC	-0.839
CUUGAGCAAUAUUACGAGUU	-2.33

Data origin, for the record: the supplement of paper PMC7877785
